# assay target: rPcCS (Phanerodontia chrysosporium)
# procedure details: Heme-derived time-dependent inhibition of PcCS
# run conditions: 30-min preincubation of PcCS with hemin at 4 °C; read-out: half-maximal inhibitory concentration (IC50)

[
  {
    "smiles record": "C=CC1=C(C)c2cc3[nH]c(cc4nc(cc5[nH]c(cc1n2)c(C)c5CCC(=O)O)C(CCC(=O)O)=C4C)c(C)c3C=C.[Fe+3]",
    "assay target": "rPcCS (Phanerodontia chrysosporium)",
    "IC50": "1000 nM"
  }
]

* * *

# assay target: UniProt:Q0EAA7
# Sequence (Q0EAA7 1-446): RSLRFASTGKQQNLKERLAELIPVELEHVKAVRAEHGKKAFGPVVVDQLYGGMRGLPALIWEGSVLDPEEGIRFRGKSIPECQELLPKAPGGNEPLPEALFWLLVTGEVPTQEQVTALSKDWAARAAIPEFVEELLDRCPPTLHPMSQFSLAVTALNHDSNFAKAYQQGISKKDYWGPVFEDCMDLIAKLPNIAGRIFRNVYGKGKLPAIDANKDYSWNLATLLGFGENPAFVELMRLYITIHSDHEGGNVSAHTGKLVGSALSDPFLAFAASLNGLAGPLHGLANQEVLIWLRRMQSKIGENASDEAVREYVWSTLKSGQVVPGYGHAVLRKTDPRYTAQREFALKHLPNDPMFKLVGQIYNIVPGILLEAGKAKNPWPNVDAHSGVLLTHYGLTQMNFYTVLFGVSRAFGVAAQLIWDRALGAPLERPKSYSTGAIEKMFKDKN
# procedure details: CS assay (DTNB method) and steady-state kinetic analysis
# Format: biochemical, Phanerochaete chrysosporium
# run conditions: read-out: Ki OAA; rPcCS, pH 8.5, OAA as variable substrate, 0–2.5 μM hemin

[
  {
    "smiles record": "C=CC1=C(C)c2cc3[nH]c(cc4nc(cc5[nH]c(cc1n2)c(C)c5CCC(=O)O)C(CCC(=O)O)=C4C)c(C)c3C=C.[Fe+3]",
    "Ki": "8.7 µM"
  }
]

* * *

# assay target: recombinant PcGAPDH (rPcGAPDH) (Phanerodontia chrysosporium)
# Construct: 6xHis-tag (pET-30) (cleaved yes)
# Sequence (Q01982 whole entry): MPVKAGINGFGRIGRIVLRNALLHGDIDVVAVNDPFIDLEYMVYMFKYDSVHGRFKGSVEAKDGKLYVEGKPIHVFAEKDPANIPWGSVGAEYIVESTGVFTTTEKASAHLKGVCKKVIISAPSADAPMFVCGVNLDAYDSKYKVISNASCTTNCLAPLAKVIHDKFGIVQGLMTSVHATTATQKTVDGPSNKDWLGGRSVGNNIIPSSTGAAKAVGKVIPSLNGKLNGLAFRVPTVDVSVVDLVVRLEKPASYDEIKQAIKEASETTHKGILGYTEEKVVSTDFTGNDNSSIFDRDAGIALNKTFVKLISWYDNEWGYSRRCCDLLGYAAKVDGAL
# procedure details: GAPDH assay and steady-state kinetic analysis
# run conditions: rPcGAPDH, pH 7.6, 5 mM NAD+, 0.6–2 mM GAP3, 0–2.5 μM hemin; read-out: Ki (inhibition constant from secondary plot)
# Description: GAPDH assay was performed as previously described (Campanale et al. [2003]). […] Reactions were monitored by the increase in absorbance at 340 nm (ε 6220 M^–1 cm^–1) for 1 min, and initial velocities were determined. […] Kinetic parameters were determined from Lineweaver–Burk plots, and Ki values were determined from the secondary plot of each slope of the Lineweaver–Burk plots. […]

[
  {
    "smiles record": "C=CC1=C(C)c2cc3[nH]c(cc4nc(cc5[nH]c(cc1n2)c(C)c5CCC(=O)O)C(CCC(=O)O)=C4C)c(C)c3C=C.[Fe+3]",
    "assay target": "recombinant PcGAPDH (rPcGAPDH) (Phanerodontia chrysosporium)",
    "Ki": "1 µM"
  }
]

* * *

# assay target: rPcCS (mitochondrial citrate synthase) (Phanerodontia chrysosporium, UniProt Q0EAA7)
# Sequence (Q0EAA7 1-446): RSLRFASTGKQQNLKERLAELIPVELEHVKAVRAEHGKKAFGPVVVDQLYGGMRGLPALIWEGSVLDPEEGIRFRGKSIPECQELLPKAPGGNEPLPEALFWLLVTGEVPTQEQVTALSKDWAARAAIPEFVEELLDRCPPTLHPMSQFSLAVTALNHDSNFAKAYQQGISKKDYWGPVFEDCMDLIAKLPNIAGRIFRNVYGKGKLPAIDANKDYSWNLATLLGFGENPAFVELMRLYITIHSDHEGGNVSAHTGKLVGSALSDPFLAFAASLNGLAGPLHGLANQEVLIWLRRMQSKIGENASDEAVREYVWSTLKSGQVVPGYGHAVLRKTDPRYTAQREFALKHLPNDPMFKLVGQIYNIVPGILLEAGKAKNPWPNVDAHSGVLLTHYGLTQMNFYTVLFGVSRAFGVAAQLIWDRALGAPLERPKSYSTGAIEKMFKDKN
# procedure details: CS assay (DTNB method) and steady-state kinetic analysis
# Assay type: biochemical, Phanerochaete chrysosporium
# run conditions: read-out: Ki AcCoA; rPcCS, pH 8.5, AcCoA as variable substrate, 0–2.5 μM hemin
pKi: −log10 of the molar value.

[
  {
    "smiles record": "C=CC1=C(C)c2cc3[nH]c(cc4nc(cc5[nH]c(cc1n2)c(C)c5CCC(=O)O)C(CCC(=O)O)=C4C)c(C)c3C=C.[Fe+3]",
    "pKi": 5.24
  }
]
